# Tested on: SEM cells
# Assay summary: cell viability relative to DMSO control; higher = less cytotoxic
# Cond: HPLM + 10% dialyzed FBS; 48 h; 0.0632 µM
Observation type: cell viability (%)
Please give a number only; it is taken to be in %.

Nc1nc2ccc(OC(F)(F)F)cc2s1 | 134

Query (compound): "Cc1cc(SCc2sc(-c3ccc(C(F)(F)F)cc3)nc2C)ccc1OCC(=O)O" ; field requested: cell viability
102

Fill blank: measured cell viability of the compound CCCNCC(O)COc1ccccc1C(=O)CCc1ccccc1 (centres undefined) is ____.
98.7

# query: cell viability of entry "CCCOc1ccc2[nH]c(NC(=O)OC)nc2c1"
42.1

Sample CNC1CCCN(c2c(F)cc3c(=O)c(C(=O)O)cn(C4CC4)c3c2OC)C1 (centres undefined) — what was its cell viability?
134

Item under review: "O=C(c1ccc(/C=C/c2n[nH]c3ccccc23)cc1)N1CCNCC1" . Reported cell viability?
60.7

Recorded cell viability of "COc1ccc2c(OCc3nnc4ccc(-c5ccccc5)nn34)ccnc2c1" , please.
120
